assayTarget: AmtB–GlnK complex (Escherichia coli, UniProt P69681)
Construct: pelB signal peptide (N, cleaved yes); 10x His-tag (N, cleaved yes); made in house; host or cells: AmtB: Escherichia coli C41(DE3), pET15b; stGlnK: Escherichia coli ArcticExpress (DE3) RIL, pET28b
Sequence (P0AC55 whole entry Y51F): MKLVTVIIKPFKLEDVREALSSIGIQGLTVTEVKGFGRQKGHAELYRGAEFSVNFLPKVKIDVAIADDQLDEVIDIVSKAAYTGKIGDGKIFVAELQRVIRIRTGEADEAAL
Sequence (P69681 23-428): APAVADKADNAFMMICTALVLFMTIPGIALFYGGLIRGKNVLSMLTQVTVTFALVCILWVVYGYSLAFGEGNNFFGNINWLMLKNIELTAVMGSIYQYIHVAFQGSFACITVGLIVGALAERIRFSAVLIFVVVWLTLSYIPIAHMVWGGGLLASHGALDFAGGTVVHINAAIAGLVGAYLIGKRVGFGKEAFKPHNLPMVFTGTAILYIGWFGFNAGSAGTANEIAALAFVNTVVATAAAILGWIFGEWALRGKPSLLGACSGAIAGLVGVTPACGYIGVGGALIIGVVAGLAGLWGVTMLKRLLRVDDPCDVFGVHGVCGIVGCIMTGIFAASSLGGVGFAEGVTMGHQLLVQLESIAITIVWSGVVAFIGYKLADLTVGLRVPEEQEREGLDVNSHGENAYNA
protocolDetails: Native MS lipid titration, lipid binding to AmtB–GlnK (equilibrium-coupled binding model)
recordedConditions: KD,AGL1, first lipid binding to AmtB–GlnK, 50 µM ADP, 298 K
parameterMeasured: Kd (µM)
Answers are plain numbers, in µM.

CCCCCCCC/C=C\CCCCCCCC(=O)O[C@H](COC(=O)CCCCCCCCCCCCCCC)COP(=O)(O)O : 10
CCCCCCCC/C=C\CCCCCCCC(=O)O[C@H](COC(=O)CCCCCCCCCCCCCCC)COP(=O)(O)OCC(O)CO (stereo partly shown) : 12

I'm hoping you can list Kd for every compound here, please.
1. CCCCCCCC/C=C\CCCCCCCC(=O)O[C@H](COC(=O)CCCCCCCCCCCCCCC)COP(=O)([O-])OCC[N+](C)(C)C
2. CCCCCCCC/C=C\CCCCCCCC(=O)O[C@H](COC(=O)CCCCCCCCCCCCCCC)COP(=O)(O)OCCN
3. CCCCCCCC/C=C/CCCCCCCC(=O)OC[C@H](COP(=O)(O)OCCN)OC(=O)CCCCCCC/C=C/CCCCCCCC [DOPE (trans)]
4. CCCCCCCC/C=C\CCCCCCCC(=O)O[C@H](COC(=O)CCCCCCCCCCCCCCC)COP(=O)(O)OC[C@H](N)C(=O)O
5. CCCCCCCC/C=C\CCCCCCCC(=O)O[C@H](COC(=O)CCCCCCCCCCCCCCCCC)COP(=O)(O)OCCN

Key:
18.9
16.3
19
9.18
14.5

----------
assayTarget: AmtB–GlnK complex (Escherichia coli)
Construct: pelB signal peptide (N, cleaved yes); 10x His-tag (N, cleaved yes); made in house; host or cells: AmtB: Escherichia coli C41(DE3), pET15b; stGlnK: Escherichia coli ArcticExpress (DE3) RIL, pET28b
protocolDetails: Native MS lipid titration, lipid binding to AmtB–GlnK (equilibrium-coupled binding model)
recordedConditions: KD,AGL2, second lipid binding to AmtB–GlnK, 50 µM ADP, 298 K
parameterMeasured: pKd
One number for each entry, as −log10 of the molar value.

Solved entries:
CCCCCCCC/C=C\CCCCCCCC(=O)O[C@H](COC(=O)CCCCCCCCCCCCCCC)COP(=O)(O)OCC(O)CO (some centres unmarked) : 4.59
CCCCCCCC/C=C\CCCCCCCC(=O)O[C@H](COC(=O)CCCCCCCCCCCCCCC)COP(=O)(O)O : 4.70
CCCCCCCC/C=C\CCCCCCCC(=O)O[C@H](COC(=O)CCCCCCCCCCCCCCC)COP(=O)([O-])OCC[N+](C)(C)C : 4.39
CCCCCCCCCCCC(=O)OC[C@H](COP(=O)(O)OCC(O)CO)OC(=O)CCCCCCCCCCC (some centres unmarked) : 4.54
CCCCCCCC/C=C/CCCCCCCC(=O)OC[C@H](COP(=O)(O)OCCN)OC(=O)CCCCCCC/C=C/CCCCCCCC [DOPE (trans)] : 4.34
CCCCCCCCCCCCCC(=O)OC[C@H](COP(=O)(O)OCC(O)CO)OC(=O)CCCCCCCCCCCCC (some centres unmarked) : 4.85

I'm hoping you can list pKd for every compound here, please.
1. CCCCCCCC/C=C\CCCCCCCC(=O)OC[C@H](COP(=O)(O)OCCN)OC(=O)CCCCCCC/C=C\CCCCCCCC [DOPE (cis)]
2. CCCCCCCC/C=C\CCCCCCCC(=O)O[C@H](COC(=O)CCCCCCCCCCCCCCC)COP(=O)(O)OCCN
3. CCCCCCCC/C=C\CCCCCCCC(=O)O[C@H](COC(=O)CCCCCCCCCCCCCCCCC)COP(=O)(O)OCCN
4. CCCCCCCCCCCCCCCC(=O)OC[C@H](COP(=O)(O)OCC(O)CO)OC(=O)CCCCCCCCCCCCCCC (some centres unmarked)
5. CCCCCCCC/C=C\CCCCCCCC(=O)O[C@H](COC(=O)CCCCCCCCCCCCCCC)COP(=O)(O)OC[C@H](N)C(=O)O

Key:
4.56
4.47
5.55
4.50
4.70

Sourced from paper PMC5736629
